- assayExplanation: Bioavailability (absolute) of oral liposomal Vancomycin versus i.v.
- Type: in vivo
- experimentalSetup: male, Wistar, rat, whole blood; oral liposomal formulation containing 1 mol-% of the cyclic CPP-liposomes, rats; read-out: bioavailability (absolute) in comparison with the i.v. application
endpointLabel: bioavailability

Challenge: Write down bioavailability measured for item CN[C@H](CC(C)C)C(=O)N[C@H]1C(=O)N[C@@H](CC(N)=O)C(=O)N[C@H]2C(=O)N[C@H]3C(=O)N[C@H](C(=O)N[C@H](C(=O)O)c4cc(O)cc(O)c4-c4cc3ccc4O)[C@H](O)c3ccc(c(Cl)c3)Oc3cc2cc(c3O[C@@H]2O[C@H](CO)[C@@H](O)[C@H](O)[C@H]2O[C@H]2C[C@](C)(N)[C@H](O)[C@H](C)O2)Oc2ccc(cc2Cl)[C@H]1O [Vancomycin]
Response given: ≤ 50%
